Hello, the source for this data is PubChem BioAssay (NCATS), in case you need it.

Assay: Viability qHTS for spleen associated tyrosine kinase inhibitor (SYKi) drug resistant MV4-11 cells (AID 1963824); note: nearly all actives have a fitted effect of over 35% in size
Conditions: SYKi-resistant MV4-11 viability, CellTiter-Glo, 72 h; series mostly up to 45 µM
Experimental: Department of Medicine, Hematology/Oncology University Hospital Frankfurt, Germany. Trials have shown promising clinical activity of the selective SYK inhibitor entospletinib in patients with high expressing HOXA9/MEIS1 acute leukemias. […] 7; Detection; Luminescence; ViewLux plate reader (PerkinElmer). […] 1. Quantitative high-throughput screening (qHTS) of small molecule compounds was conducted on drug resistant SYKi MV4-11 cell line. […] 7. Luminescence was measured on a ViewLux plate reader (PerkinElmer).
Results filed as inconclusive are left out. The source made the active and inactive calls. Calls come from the whole dose curve; as a rule, active = well fitted cell-killing curve with a large enough effect; inconclusive = small, poorly fitted or top-dose-only effect, or effect the other way; inactive = no such curve, though single readings can be large or run the other way. Numbered stars: 1 amine (or outer) side, 2 acyl side, 3 side chain; on linkers, the order of the positions; unused ones are H or OH. Bridge positions count the residues as written; N and C are the ends. Square brackets hold non-standard residues; d marks the D form. Peptide text beside a SMILES is read from it. I, II: the chains in the order shown. Actinocin(9to1) = Cc1c2oc3c(C)ccc(C(=O)[*:1])c3nc-2c(C(=O)[*:2])c(N)c1=O; NMeV = CN[CH](C(=O)O)C(C)C; Sar = CNCC(=O)O
The categories you may choose from are label 1 = active, label 0 = inactive

Tell me the recorded outcome of this test for `[O-][n+]1cccc(/C(Cl)=N/OC[C@@H](O)CN2CCCCC2)c1` .
label 0

GET /call?item= Cc1c2oc3c(C)ccc(C(=O)NC4C(=O)NC(C(C)C)C(=O)N5CCCC5C(=O)N(C)CC(=O)N(C)C(C(C)C)C(=O)OC4C)c3nc-2c(C(=O)NC2C(=O)NC(C(C)C)C(=O)N3CCCC3C(=O)N(C)CC(=O)N(C)C(C(C)C)C(=O)OC2C)c(N)c1=O (stereo unspecified) (I: TVP[Sar][NMeV] / II: TVP[Sar][NMeV]; ester I:1-I:C, II:1-II:C; linker I:N-II:N via Actinocin(9to1); configuration not given here) returns the recorded outcome of this test.
label 1

Entry `CC(C)(C)CC(C)(C)c1ccc(O)c(Cc2ccc(Cl)cc2Cl)c1` : call = ?
label 1

Outcome? `Oc1ccc(-c2cnc3ccc(NCc4ccco4)nn23)cc1`
label 1

For `O=C(/C=C/c1ccccc1O)O[C@@H]1O[C@H](CO)[C@@H](O)[C@H](O)[C@H]1O` , which call appears in the assay record?
label 0

Per the records of this test, what outcome belongs to `O=C(C1CC1)N1CC[C@@H](Cc2n[nH]c(=O)n2-c2ccc(-c3ccc4occc4c3)cc2)C1` ?
label 1

###

Assay: Quantitative highthroughput screen to assess conditional lethalithy of NOMO1 cells grown in RPMI1640 with dialyzed fetal bovine serum (RPMI+ds) (AID 1963877); note: nearly all actives have a fitted effect of over 30% in size;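 for viability: 100% = DMSO control wells and 0% = empty wells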
Settings: NOMO1 in RPMI+dialyzed FBS viability, ATP luminescence, 48 h; series mostly up to 45.8 µM
Records with an inconclusive call do not appear. Activity calls are given as the source filed them. Calls come from the whole dose curve; as a rule, active = well fitted cell-killing curve with a large enough effect; inconclusive = small, poorly fitted or top-dose-only effect; inactive = flat fitted curve, though single readings scatter.
Lab note: assign the record to one of y (active), n (inactive)

# count of solved cases: 5
>  <COMPOUND>
Cc1cc(Nc2ncc(Cl)c(Nc3ccccc3S(=O)(=O)C(C)C)n2)c(OC(C)C)cc1C1CCNCC1

>  <ASSIGNED_LABEL>
y

$$$$
>  <COMPOUND>
Cc1cc(O)c2c(c1)C(=O)c1cccc(O)c1C2=O

>  <ASSIGNED_LABEL>
n

$$$$
>  <COMPOUND>
N#Cc1c(C2CCNCC2)cc(-c2c(O)cccc2OCC2CC2)nc1N

>  <ASSIGNED_LABEL>
n

$$$$
>  <COMPOUND>
CC1(C)CC(=O)c2c(C(F)(F)F)nn(-c3ccc(C(N)=O)c(NC4CCC(O)CC4)c3)c2C1 (stereo not given)

>  <ASSIGNED_LABEL>
y

$$$$
>  <COMPOUND>
Cc1cn([C@H]2C[C@H](N=[N+]=[N-])[C@@H](CO)O2)c(=O)[nH]c1=O

>  <ASSIGNED_LABEL>
y

$$$$

Could you please tell me the result logged for `COc1cc2ncnc(Nc3cccc(Br)c3)c2cc1OC` in this assay?
n

So what was the verdict on `O=C1NC(=O)C(c2ccccc2[N+](=O)[O-])=C1Nc1ccc(O)c(Cl)c1` in this test?
y

Any idea what this test logged for `Cc1coc2c1C(=O)C(=O)c1c-2ccc2c(C)cccc12` ?
n

Lab log entry: C=C1CCC2[C@](C)(CO)C(O)CC[C@]2(C)C1CC=C1C(=O)OCC1O (stereo not given in full) — outcome as called in the assay?
n

Could you please tell me the result logged for `CC1(C)[C@H](O[C@H]2O[C@H](C(=O)O)[C@@H](O)[C@H](O)[C@H]2O[C@@H]2O[C@H](C(=O)O)[C@@H](O)[C@H](O)[C@H]2O)CC[C@@]2(C)[C@H]1CC[C@]1(C)[C@H]2C(=O)C=C2[C@H]3C[C@@](C)(C(=O)O)CC[C@]3(C)CC[C@]21C` in this assay?
n

What call does the record list for `O=c1[nH]nc(Sc2ncc([N+](=O)[O-])s2)n1-c1ccc2c(c1)OCCO2` ?
y

What did the test return for `Cc1ccc([C@@H]2O[C@H](CO)[C@@H](O)[C@H](O)[C@@H]2O)cc1Cc1ccc(-c2ccc(F)cc2)s1` ?
n

Look up the recorded call for `C[C@@H]1[C@H](O)[C@@H](C)C=CC=CC=CC=CC=CC=CC=C[C@H](O[C@@H]2O[C@H](C)[C@H](O)[C@H](N)[C@@H]2O)C[C@@H]2O[C@](O)(C[C@@H](O)C[C@@H](O)[C@H](O)CC[C@@H](O)C[C@@H](O)CC(=O)O[C@H]1C)C[C@H](O)[C@@H]2C(=O)O` in this test.
n

What call does the record list for O=C1Nc2ccc(Cl)cc2C(C#CC2CC2)(C(F)(F)F)O1 (stereo not given) ?
n

###

Test: Viability qHTS for spleen associated tyrosine kinase inhibitor (SYKi) drug resistant MV4-11 cells (AID 1963824); note: nearly all actives have a fitted effect of over 35% in size
Conditions: SYKi-resistant MV4-11 viability, CellTiter-Glo, 72 h; series mostly up to 45 µM
Inconclusive results are not listed. Active and inactive are the calls of the source. Calls follow the shape of the dose curve; as a rule, active = well fitted cell-killing curve with a large enough effect; inconclusive = small, poorly fitted or top-dose-only effect, or effect the other way; inactive = no such curve, though single readings can be large or run the other way.
Respond with a class label; see active, inactive

>  <COMPOUND>
C=C1C(OC(C)=O)C(=O)C2C(C)(C)C(O)CCC2(C)C1CC(OC(C)=O)/C(C)=C/COC(C)=O (centres undefined)

>  <ASSIGNED_LABEL>
inactive

$$$$
>  <COMPOUND>
CCN1CCN(Cc2ccc(-c3cc4c(NC(C)c5ccccc5)ncnc4[nH]3)cc2)CC1 (centres undefined)

>  <ASSIGNED_LABEL>
active

$$$$
>  <COMPOUND>
COC(=O)C1=C(C)NC(C)=C(C(=O)OCC(C)C)C1c1ccccc1[N+](=O)[O-] (centres undefined)

>  <ASSIGNED_LABEL>
active

$$$$

Turning to the following compound.
Give the logged outcome of this assay for the following compound: C=C(C(=O)OC)C1C(O)CC2(C)C(=O)CCC(O)(CO)C2C1O (centres undefined)
inactive

###

Test: Viability qHTS for spleen associated tyrosine kinase inhibitor (SYKi) naive MV4-11 cells (AID 1963823); note: nearly all actives have a fitted effect of over 40% in size; note: potency is the fitted concentration of half-maximal effect
Conditions: MV4-11 AML viability, CellTiter-Glo luminescence, 72 h; series mostly up to 45 µM
Records with an inconclusive call do not appear. Active and inactive are the calls of the source. Calls come from the whole dose curve; as a rule, active = well fitted cell-killing curve with a large enough effect; inconclusive = small, poorly fitted or top-dose-only effect, or effect the other way; inactive = no such curve, though single readings can be large or run the other way. Where a SMILES comes first, the peptide text is derived from it. [ ]: non-standard residue; d: D form. The star is where a group is joined. Sta = CC(C)C[C@H](N)[C@@H](O)CC(=O)O; Isovaleryl = CC(C)CC(=O)*
REPORTED_METRIC: Potency

See these solved cases before continuing.
>  <COMPOUND>
CC(C)CC(=O)N[C@H](C(=O)N[C@H](C(=O)N[C@@H](CC(C)C)[C@@H](O)CC(=O)N[C@@H](C)C(=O)N[C@@H](CC(C)C)[C@@H](O)CC(=O)O)C(C)C)C(C)C (Isovaleryl-VV[Sta]A[Sta]-OH)

>  <OBSERVED_MEASUREMENT>
inactive

$$$$
>  <COMPOUND>
COc1cc(-c2cc(-c3cccc(O)c3)cnc2N)cc(OC)c1OC

>  <OBSERVED_MEASUREMENT>
11.6 µM (active)

$$$$
>  <COMPOUND>
O=C(O)Cn1c(C(=O)Nc2nc(-c3ccccc3Cl)cs2)cc2ccccc21

>  <OBSERVED_MEASUREMENT>
inactive

$$$$
>  <COMPOUND>
C=C1C[C@H](O)[C@@H](O)[C@@]2(C)C1[C@@H](O)[C@H]1OC(=O)C3[C@@H](C)[C@@H](O)[C@H](O)C2[C@]31C (stereo partly drawn)

>  <OBSERVED_MEASUREMENT>
inactive

$$$$
>  <COMPOUND>
COc1cc2c(cc1O)CCN[C@]21CS[C@@H]2c3c(OC(C)=O)c(C)c4c(c3[C@H](COC1=O)N1[C@@H]2[C@H]2c3c(cc(C)c(OC)c3O)C[C@@H]([C@@H]1O)N2C)OCO4

>  <OBSERVED_MEASUREMENT>
0.0014 µM (active)

$$$$

Per the record, CC/C=C/C(O)C(O)C1=C(C)C(=O)C2(O1)C(=O)NC(OC)(C(=O)c1ccccc1)C2O (stereo not drawn) has Potency of inactive

So for `CO[C@H]1/C=C/O[C@@]2(C)Oc3c(C)c(O)c4c(O)c(c5c(c4c3C2=O)=NC2(CCN(CC(C)C)CC2)N=5)NC(=O)/C(C)=C/C=C/[C@H](C)[C@H](O)[C@@H](C)[C@@H](O)[C@@H](C)[C@H](OC(C)=O)[C@@H]1C` , the logged Potency turned out to be 18.6 µM (active)

# compound CC1=CC(=O)CC(C)(C)C1/C=C/C(C)O[C@@H]1O[C@H](CO)[C@@H](O)[C@H](O)[C@H]1O[C@@H]1OC[C@](O)(CO)[C@H]1O (stereo partly drawn) ; its Potency = inactive
